# ASSAY_EXPLANATION: sensitizers of A549 cells to miR-34 induction, primary screen, imaging, A549 dox-inducible miR-34, nuclei and caspase counts (AID 1347080)
# RECORDED_CONDITIONS: A549 miR-34 inducible, Hoechst nuclei count, 48 h; measured here: relative caspase fold change +Dox/-Dox
Mark True only for fold change values smaller than 0.9; exact matches and larger values are False.

# count of solved cases: 2
>>> assigned_label("CCN1C[C@@]2(COC)C3[C@@H](OC)[C@H]4[C@H]1C3([C@@H]1C[C@@]3(O)[C@H](OC(=O)c5ccccc5)[C@@H]1[C@]4(OC(C)=O)[C@@H](O)[C@@H]3OC)[C@H](OC)C[C@H]2O")
"False"
>>> assigned_label("Cc1ncc(CNC(=O)N(CCCl)N=O)c(N)n1")
"False"

Does CC(=O)OC1CN2CCC1CC2 (stereo not given) have fold change strictly under 0.9?
True

And then CCOc1ccccc1-n1c(C(C)N2CCN(C(=O)COc3ccc(Cl)cc3)CC2)nc2ccccc2c1=O (stereo not given) , what is it?
True

Moving on to the next compound: CC(=O)Nc1ccc(Cc2ccc(NC(C)=O)cc2)cc1
True

Next up: CN=C1CN(O)C(c2ccccc2)=c2cc(Cl)ccc2=N1
False

What do you have for CC1=C(C(=O)Nc2ccccc2)SCCO1 ?
True

Also check C[C@]12CC[C@H](O)CC1=CC[C@@H]1[C@@H]2CC[C@]2(C)C(=O)CC[C@@H]12
False

Same again, this time with Cc1o[nH]c(=O)c1C[C@H](N)C(=O)O
True

Next compound: NC(=O)OCCCc1ccccc1
False

----------
# ASSAY_EXPLANATION: MDA-MB-436 breast carcinoma cell growth inhibition, synergistic combos for chromothripsis tumors, BGB or cisplatin combos (AID 1671458);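 note: cells exposed for 96 hours; 0% = vehicle DMSO and 100% = killing by high DMSO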
# RECORDED_CONDITIONS: MDA-MB-436 breast carcinoma growth inhibition, drug combinations; measured here: BGB combination; at 5 µM; stronger effect = higher value
ATTRIBUTE_MEASURED: inhibition (%)
Field: numeric (%). Do not append units.

>>> result_number("CCC1(c2ccccc2)C(=O)NC(=O)NC1=O")
1.86
>>> result_number("CN(C)NC(=O)CCC(=O)O")
-35.6
>>> result_number("O=C1CCC[C@@H]2[C@H]3CCCN4CCC[C@@H](CN12)[C@@H]34")
1.19
>>> result_number("CC1(C)C(C(=O)Nc2ccc(S(=O)(=O)c3ccc(NC(=O)C4C(C)(C)C4(C)C)cc3)cc2)C1(C)C")
-4.44
>>> result_number("O=c1[nH]c(=O)n(C2OC(CO)C(O)C2O)cc1F (stereo not drawn)")
83.1
>>> result_number("Cn1c(COP(=O)(NCCBr)NCCBr)cnc1[N+](=O)[O-]")
10.1
>>> result_number("Cn1c(CCCC(=O)O)nc2cc(N(CCCl)CCCl)ccc21")
-23.4

Turning now to a further record.
For O=P(O)(NCCCl)NCCCl , what is its reported inhibition?
-5.62

----------
# Test system: Aerobactin synthetase IucA (Klebsiella pneumoniae)
# ASSAY_EXPLANATION: IucA aerobactin synthetase inhibitors, biochemical, Tocris library, absorbance (AID 1345561);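 note: 100% = enzyme without compound and 0% = no enzyme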
# RECORDED_CONDITIONS: purified IucA enzyme assay, absorbance (OD) read-out; stronger effect = lower value; concentration not given here
ATTRIBUTE_MEASURED: remaining activity (%)
The figure you give is taken to be in %; do not add the unit.

Consider the reported remaining activity for these compounds:
>>> result_number("O=C1CCCN1CC#CCN1CCCC1")
92.7
>>> result_number("O=C1/C(=C/c2ccccc2)C[C@@]2(O)C3Cc4ccc(O)c5c4[C@@]2(CCN3CC2CC2)[C@H]1O5")
97.5
>>> result_number("Cc1o[nH]c(=O)c1C[C@H](N)C(=O)O")
106
>>> result_number("c1ccc2nc(N3CCNCC3)ccc2c1")
102

Which remaining activity is reported for this compound? c1ccc2c(c1)[I+]c1ccccc1-2
106

Same thing, different compound: CN1C2CCC1CC(OC(=O)c1cc(Cl)cc(Cl)c1)C2 (stereo unspecified)
82.7

----------
# Test system: F380Y
# ASSAY_EXPLANATION: modulators of BK channel variants, profiling panel, selectivity assay, cell-based, U2OS BacMam, thallium flux, beta subunits (AID 1259406);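 note: initial slope of Thallos dye fluorescence rise after thallium is added; log ratio against the mean of 0.3% DMSO vehicle wells on the same plate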
# RECORDED_CONDITIONS: at 30 µM
Calls of active or inactive are those of the source.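 Rule for the calls: active = thallium flux through the channel raised or lowered by more than 3 SD from vehicle-only wells, actives on both sides; inactive = the rest.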
Recorded log fold change Tl+ flux by entry

Below, 5 molecules whose answers are already recorded.
>>> result("C[N+]1(CCC(C(N)=O)(c2ccccc2)c2ccccc2)CCCCC1")
"0.00354 (inactive)"
>>> result("O=C(O)CCCc1ccc(N(CCCl)CCCl)cc1")
"-0.0169 (inactive)"
>>> result("c1ccc2c(c1)Nc1ccccc1S2")
"-0.0351 (inactive)"
>>> result("COc1ccc(CCN)cc1OC")
"-0.0565 (inactive)"
>>> result("O=C1CC[C@@]2(O)[C@H]3Cc4ccc(O)c5c4[C@@]2(CCN3CC2CC2)[C@H]1O5")
"0.00675 (inactive)"

Field: log fold change Tl+ flux (F380Y). Entry: CN1C(=O)CN=C(c2ccccc2)c2cc([N+](=O)[O-])ccc21
0.0275 (inactive)

For CC(C)N(CCC(C(N)=O)(c1ccccc1)c1ccccn1)C(C)C (configuration not stated) then?
-0.0248 (inactive)

Another molecule: C=C1C[C@@H]2[C@H](CC[C@]3(C)C(=O)CC[C@@H]23)[C@@]2(C)C=CC(=O)C=C12
-0.00852 (inactive)

Queued: CC(O)(CS(=O)(=O)c1ccc(F)cc1)C(=O)Nc1ccc(C#N)c(C(F)(F)F)c1 (configuration not stated)
-0.0003 (inactive)

Also check O=C(O)C(Cl)Cl
-0.0365 (inactive)

Also, CCN(CC)CCOC(=O)C(O)(c1ccccc1)c1ccccc1 please.
0.0198 (inactive)

Next up: Cc1csc2sc(C=C(C#N)C#N)c(C)c12
0.0324 (inactive)

----------
# ASSAY_EXPLANATION: UWB1.289 ovarian carcinoma cell growth inhibition, synergistic combos for chromothripsis tumors, BGB or cisplatin combos (AID 1671456);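 note: cells exposed to compound for four days; 0% = vehicle DMSO and 100% = killing by high DMSO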
# RECORDED_CONDITIONS: UWB1.289 ovarian carcinoma cells, measured here: inhibition with cisplatin combination, at 0.05 µM, stronger effect = higher value
ATTRIBUTE_MEASURED: inhibition
Please answer using a numeric value trailed by its unit.

In the examples that follow, each entry is paired with its recorded inhibition.
>>> result("O=P(O)(NCCCl)NCCCl")
"-8.03%"
>>> result("COc1cc(C2c3cc4c(cc3C(O)C3COC(=O)C23)OCO4)cc(OC)c1OC (configuration not stated)")
"39.3%"
>>> result("Cc1c2ccncc2c(C)c2c1[nH]c1ccccc12")
"-1.5%"
>>> result("CN(C)NC(=O)CCC(=O)O")
"-15.9%"
>>> result("Cn1c(CCCC(=O)O)nc2cc(N(CCCl)CCCl)ccc21")
"-10.4%"
>>> result("CCC1(c2ccccc2)C(=O)NC(=O)NC1=O")
"-12%"

Shifting focus to the molecule that follows.
Requested field: inhibition. Item: O=C1CCC[C@@H]2[C@H]3CCCN4CCC[C@@H](CN12)[C@@H]34
1.55%

----------
# ASSAY_EXPLANATION: LFS_MB_2R medulloblastoma cell growth inhibition, synergistic combos for chromothripsis tumors, cisplatin combos (AID 1671457);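 note: cells exposed to compound for four days before readout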
# RECORDED_CONDITIONS: LFS_MB_2R medulloblastoma cells, at 0.5 µM, stronger effect = higher value
List of inhibition values.
Report the figure in % without appending any unit label.

Completed entries (count: 5):
>>> result_number("CCC1(c2ccccc2)C(=O)NC(=O)NC1=O")
-20.1
>>> result_number("O=c1[nH]c(=O)n(C2OC(CO)C(O)C2O)cc1F (stereo unspecified)")
-12.7
>>> result_number("COc1cc(C2c3cc4c(cc3C(O)C3COC(=O)C23)OCO4)cc(OC)c1OC (stereo unspecified)")
33.5
>>> result_number("O=C1CCC[C@@H]2[C@H]3CCCN4CCC[C@@H](CN12)[C@@H]34")
0.58
>>> result_number("Cn1c(CCCC(=O)O)nc2cc(N(CCCl)CCCl)ccc21")
-14.6

We now examine a further compound.
Name the recorded inhibition for NC(Cc1ccc(N(CCCl)CCCl)cc1)C(=O)O (stereo unspecified) .
-18.9

----------
# ASSAY_EXPLANATION: stimulators of nuclear beta-catenin in C2C12, primary screen, imaging, WNT3A-conditioned medium, mouse C2C12, NPC library (AID 1117326)
# RECORDED_CONDITIONS: at 10 µM, stronger effect = higher value
Activity calls are given as the source filed them. No stated cut-off is given here; in the data, active means nuclear beta-catenin stimulation mostly above about 4.2% (no sharp cut-off); inactive means mostly below about 10%.
ATTRIBUTE_MEASURED: nuclear beta-catenin stimulation

Solved cases (4 shown):
>>> result("CCO[C@H]1O[C@@H]2OC3(C)CC[C@H]4[C@H](C)CC[C@@H]([C@H]1C)[C@@]24OO3")
"6.9% (inactive)"
>>> result("Oc1c(Br)cc(Br)cc1Br")
"-0.6% (inactive)"
>>> result("O=C(CCCCl)c1ccc(F)cc1")
"-0.1% (inactive)"
>>> result("C#CCOC(C(=O)OCCN(C)C)(c1ccccc1)c1ccccc1")
"2.7% (inactive)"

// lookup nuclear beta-catenin stimulation for CCN[C@@H](C)Cc1cccc(C(F)(F)F)c1
3% (inactive)

Item: CCCCCCCCC(=O)NCc1ccc(O)c(OC)c1
2.1% (inactive)

And what about the compound CCC(C)(C)c1ccc(O)cc1 ?
0.6% (inactive)

Origin of measurements: PubChem BioAssay
